- SYSTEM_TESTED: mitogen-activated protein kinase-activated protein kinase 2 (human MK2) (human, UniProt P49137 46-400, limits assumed)
- Sequence (P49137 46-400 limits assumed): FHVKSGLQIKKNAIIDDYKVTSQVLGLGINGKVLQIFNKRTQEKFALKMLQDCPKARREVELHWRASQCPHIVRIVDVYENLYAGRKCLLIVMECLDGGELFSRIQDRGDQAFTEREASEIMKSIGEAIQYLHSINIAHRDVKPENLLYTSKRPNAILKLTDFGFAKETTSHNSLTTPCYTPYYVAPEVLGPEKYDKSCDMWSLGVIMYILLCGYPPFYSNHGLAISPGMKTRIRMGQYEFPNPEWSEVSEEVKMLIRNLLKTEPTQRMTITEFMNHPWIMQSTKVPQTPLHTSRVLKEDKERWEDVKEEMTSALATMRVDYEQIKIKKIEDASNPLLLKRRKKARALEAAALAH
- EXPERIMENT_DESCRIPTION: cell-based or functional assay
Non-standard residues stand in square brackets, D forms with d. No end group written: not given here.
Listed here: items and their measured % change in MK2 reaction velocity vs unsubstituted …, peptide at 100 µM.
Provide only the numeric value, understood in %.

BINDER	UNIT_STRING	EXPERIMENTAL_RESULT
KALNRQ[dL]GVAA-NH2 (N-terminus assumed; SMILES CC(C)C[C@H](NC(=O)[C@H](C)NC(=O)[C@@H](N)CCCCN)C(=O)N[C@@H](CC(N)=O)C(=O)N[C@@H](CCCNC(=N)N)C(=O)N[C@@H](CCC(N)=O)C(=O)N[C@H](CC(C)C)C(=O)NCC(=O)N[C@H](C(=O)N[C@@H](C)C(=O)N[C@@H](C)C(N)=O)C(C)C) [KALNRQdLGVAA]	%	257

In one line, give reported % change in MK2 reaction velocity vs unsubstituted …, peptide at 100 µM of the entry "YGRKKRRQRRR" .
44
